# Tested on: U937 cells
# method_notes: U937 cell inhibition assay (WST-1 proliferation)
# Type: cell-based
# assay_setup: Homo sapiens, U-937; Table 4; head prints no unit, same values in Table 5 as IC50 nM; read-out: Inhibition of proliferation in U937 cells

compound | IC50, nM
O=C(CCc1ccc(CNC2(C(=O)OC3CCCC3)CCCC2)cc1)NO | 180
CC(C)CC(C)(NCc1ccc(CCC(=O)NO)cc1)C(=O)OC1CCCC1 (racemic) | 190

###

# target_system: histone deacetylase activity (HeLa nuclear extract)
# method_notes: Histone deacetylase activity (Fluor de Lys, HeLa nuclear extract)
# Assay type: biochemical
# assay_setup: Table 5; Acid = carboxylic acid hydrolysis product of the ester; read-out: Inhibition of HDAC (IC50 nM)

compound | IC50 / nM
CC(C)CC(C)(NCc1ccc(CCC(=O)NO)cc1)C(=O)OC1CCCC1 (racemic) [Example 9] | 6240
O=C(CCc1ccc(CNC2(C(=O)OC3CCCC3)CCCC2)cc1)NO [Example 7] | 6120

###

Known IC50 of a selection of compounds
# target_system: p38 MAP Kinase α (Homo sapiens)
# Construct: purchased Upstate (Dundee UK)
# Sequence (Q16539 whole entry): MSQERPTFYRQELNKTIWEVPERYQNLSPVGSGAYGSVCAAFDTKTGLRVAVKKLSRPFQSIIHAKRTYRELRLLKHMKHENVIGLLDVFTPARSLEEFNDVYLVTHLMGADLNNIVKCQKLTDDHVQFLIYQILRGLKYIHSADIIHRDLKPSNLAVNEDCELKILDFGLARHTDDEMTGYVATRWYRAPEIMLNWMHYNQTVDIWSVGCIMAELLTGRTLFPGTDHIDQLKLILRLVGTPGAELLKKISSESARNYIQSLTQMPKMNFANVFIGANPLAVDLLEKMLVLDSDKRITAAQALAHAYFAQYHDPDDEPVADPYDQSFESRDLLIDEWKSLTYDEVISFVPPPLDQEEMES
# method_notes: p38 MAP Kinase enzyme assay
# Format: biochemical
# assay_setup: Table 1 (biology); compound as such, Ester for Example 1; read-out: Inhibition of P38 (IC50 nM)
reported_endpoint: IC50 (nM)

compound | target_system | reported_measurement
CC(C)(NCCc1ccc(-n2c(N)c(C(=O)c3ccc(F)cc3F)ccc2=O)cc1)C(=O)OC1CCCC1 [Example 1] | p38 MAP Kinase α (Homo sapiens) | 50
Nc1c(C(=O)c2ccc(F)cc2F)ccc(=O)n1-c1ccccc1 [Compound I, reference compound] | p38 MAP Kinase α (Homo sapiens) | 50

###

# target_system: histone deacetylase activity (HeLa nuclear extract)
# method_notes: Histone deacetylase activity (Fluor de Lys, HeLa nuclear extract)
# Format: biochemical
# assay_setup: Table 5; compound as such, Ester for Examples 7 and 9; read-out: Inhibition of HDAC (IC50 nM)

compound | target_system | scale_unit | IC50
O=C(CCc1ccccc1)NO [Compound IV, N-Hydroxy-3-phenyl-propionamide, reference compound] | histone deacetylase activity (HeLa nuclear extract) | nM | 2600
CC(C)CC(C)(NCc1ccc(CCC(=O)NO)cc1)C(=O)OC1CCCC1 (racemic) | histone deacetylase activity (HeLa nuclear extract) | nM | 4900
O=C(CCc1ccc(CNC2(C(=O)OC3CCCC3)CCCC2)cc1)NO | histone deacetylase activity (HeLa nuclear extract) | nM | 4200
